meta.source: PubChem BioAssay (NCI)

Tested on: SF-539 CNS
Experiment: NCI-60 one-dose screen, 48 h
Settings: 100 µM
About 83,000 compounds went through this panel and 20% of them were active in at least one assay; those are over-represented in the sample as a whole. The source made the active and inactive calls. How the source made its calls: active means growth percent below 10; inactive means the rest.
Please reply with one of these outcomes: active, inactive

A selection of reference data follows.
CC(=O)/C=C/c1ccc(N(CCO)Cc2ccc(C(C)(C)C)cc2)cc1 | active
COc1ccc(C(=O)/C=C/c2ccc(OCc3ccc(Cl)cc3)cc2)cc1OC | inactive
CC(=O)/C=C/c1ccc(OCc2ccc(Cl)cc2)cc1 | inactive

Exam item: Recorded call for COc1ccc(C(=O)/C=C/c2ccc(OCc3cccc(C(F)(F)F)c3)c(OC)c2)cc1OC ?
Marked response: inactive

Exam item: Recorded call for CC(=O)/C=C/c1ccc(OCc2ccc(C(C)(C)C)cc2)cc1 ?
Marked response: inactive

Exam item: Recorded call for CC(=O)/C=C/c1ccc(N(C)Cc2ccc(C(C)(C)C)cc2)cc1 ?
Marked response: active
